assay: total protein half-life in vivo (active degradation + dilution); higher = more stable protein; details: E. coli NCM3722 delta-smpB; growth: N-lim chemostat; doubling time 6 h
property: total protein half-life in vivo (h)
Value expressed in h; do not type the unit.

stdin: So what does the record say about total protein half-life in vivo for MTDLIQRPRRLRKSPALRAMFEETTLSLNDLVLPIFVEEEIDDYKAVEAMPGVMRIPEKHLAREIERIANAGIRSVMTFGISHHTDETGSDAWREDGLVARMSRICKQTVPEMIVMSDTCFCEYTSHGHCGVLCEHGVDNDATLENLGKQAVVAAAAGADFIAPSAAMDGQVQAIRQALDAAGFKDTAIMSYSTKFASSFYGPFREAAGSALKGDRKSYQMNPMNRREAIRESLLDEAQGADCLMVKPAGAYLDIVRELRERTELPIGAYQVSGEYAMIKFAALAGAIDEEKVVLESLGSIKRAGADLIFSYFALDLAEKKILR [P0ACB2] ?
stdout: 4.71

stdin: Same for MHQVVCATTNPAKIQAILQAFHEIFGEGSCHIASVAVESGVPEQPFGSEETRAGARNRVANARRLLPEADFWVAIEAGIDGDSTFSWVVIENASQRGEARSATLPLPAVILEKVREGEALGPVMSRYTGIDEIGRKEGAIGVFTAGKLTRASVYHQAVILALSPFHNAVY
stdout: 3.57

stdin: Same for MSQLPGLSRETRESIAMYHLRVPQTEEELERYYQFRWEMLRKPLHQPKGSERDAWDAMAHHQMVVDEQGNLVAVGRLYINADNEASIRFMAVHPDVQDKGLGTLMAMTLESVARQEGVKRVTCSAREDAVEFFAKLGFVNQGEITTPTTTPIRHFLMIKPVATLDDILHRGDWCAQLQQAWYEHIPLSEKMGVRIQQYTGQKFITTMPETGNQNPHHTLFAGSLFSLATLTGWGLIWLMLRERHLGGTIILADAHIRYSKPISGKPHAVADLGALSGDLDRLARGRKARVQMQVEIFGDETPGAVFEGTYIVLPAKPFGPYEEGGNEEE [P0ADQ2]
stdout: 4.38

stdin: Same for MKRLHKRFLLATFCALFTATLQAADVTITVNGRVVAKPCTIQTKEANVNLGDLYTRNLQQPGSASGWHNITLSLTDCPVETSAVTAIVTGSTDNTGYYKNEGTAENIQIELRDDQDAALKNGDSKTVIVDEITRNAQFPLKARAITVNGNASQGTIEALINVIYTWQ
stdout: 5.55

stdin: Same for MDNDKIDQHSDEIEVESEEKERGKKIEIDEDRLPSRAMAIHEHIRQDGEKELERDAMALLWSAIAAGLSMGASLLAKGIFQVELEGVPGSFLLENLGYTFGFIIVIMARQQLFTENTVTAVLPVMQKPTMSNVGLLIRLWGVVLLGNILGTGIAAWAFEYMPIFNEETRDAFVKIGMDVMKNTPSEMFANAIISGWLIATMVWMFPAAGAAKIVVIILMTWLIALGDTTHIVVGSVEILYLVFNGTLHWSDFIWPFALPTLAGNICGGTFIFALMSHAQIRNDMSNKRKAEARQKAERAENIKKNYKNPA
stdout: 6.11

stdin: Same for MDSFPAIEIDKVKAWDFRLANINTSECLNVAYGVDANYLDGVGVSITSIVLNNRHINLDFYIIADVYNDGFFQKIAKLAEQNQLRITLYRINTDKLQCLPCTQVWSRAMYFRLFAFQLLGLTLDRLLYLDADVVCKGDISQLLHLGLNGAVAAVVKDVEPMQEKAVSRLSDPELLGQYFNSGVVYLDLKKWADAKLTEKALSILMSKDNVYKYPDQDVMNVLLKGMTLFLPREYNTIYTIKSELKDKTHQNYKKLITESTLLIHYTGATKPWHKWAIYPSVKYYKIALENSPWKDDSPRDAKSIIEFKKRYKHLLVQHHYISGIIAGVCYLCRKYYRK
stdout: 5.17

stdin: Same for MTSLYLASGSPRRQELLAQLGVTFERIVTGIEEQRQPQESAQQYVVRLAREKARAGVAQTAKDLPVLGADTIVILNGEVLEKPRDAEHAAQMLRKLSGQTHQVMTAVALADSQHILDCLVVTDVTFRTLTDEDIAGYVASDEPLDKAGAYGIQGLGGCFVRKINGSYHAVVGLPLVETYELLSNFNALREKRDKHDG
stdout: 3.26

stdin: Same for MTDNPNKKTFWDKVHLDPTMLLILLALLVYSALVIWSASGQDIGMMERKIGQIAMGLVIMVVMAQIPPRVYEGWAPYLYIICIILLVAVDAFGAISKGAQRWLDLGIVRFQPSEIAKIAVPLMVARFINRDVCPPSLKNTGIALVLIFMPTLLVAAQPDLGTSILVALSGLFVLFLSGLSWRLIGVAVVLVAAFIPILWFFLMHDYQRQRVMMLLDPESDPLGAGYHIIQSKIAIGSGGLRGKGWLHGTQSQLEFLPERHTDFIFAVLAEELGLVGILILLALYILLIMRGLWIAARAQTTFGRVMAGGLMLILFVYVFVNIGMVSGILPVVGVPLPLVSYGGSALIVLMAGFGIVMSIHTHRKMLSKSV [P0ABG7]
stdout: 5.99

stdin: Same for MADVHDKATRSKNMRAIATRDTAIEKRLASLLTGQGLAFRVQDASLPGRPDFVVDEYRCVIFTHGCFWHHHHCYLFKVPATRTEFWLEKIGKNVERDRRDISRLQELGWRVLIVWECALRGREKLTDEALTERLEEWICGEGASAQIDTQGIHLLA
stdout: 4.35

stdin: Same for MDNRGEFLNNVAQALGRPLRLEPQAEDAPLNNYANERLTQLNQQQRCDAFIQFASDVMLTRCELTSEAKAAEAAIRLCKELGDQSVVISGDTRLEELGISERLQQECNAVVWDPAKGAENISQAEQAKVGVVYAEYGLTESGGVVLFSAAERGRSLSLLPEYSLFILRKSTILPRVAQLAEKLHQKAQAGERMPSCINIISGPSSTADIELIKVVGVHGPVKAVYLIIEDC
stdout: 1.78

stdin: Same for MDLIYFLIDFILHIDVHLAELVAEYGVWVYAILFLILFCETGLVVTPFLPGDSLLFVAGALASLETNDLNVHMMVVLMLIAAIVGDAVNYTIGRLFGEKLFSNPNSKIFRRSYLDKTHQFYEKHGGKTIILARFVPIVRTFAPFVAGMGHMSYRHFAAYNVIGALLWVLLFTYAGYFFGTIPMVQDNLKLLIVGIIVVSILPGVIEIIRHKRAAARAAK [P0ABP6]
stdout: 4.71

* * *

test: total protein half-life in vivo (active degradation + dilution); higher = more stable protein; settings: wild type E. coli NCM3722; growth: C-lim chemostat; doubling time 12 h
Would you mind telling me the reported total protein half-life in vivo of each entry?
Value expressed in h; do not type the unit.

stdin: So what does the record say about total protein half-life in vivo for MSEALLNAGRQTLMLELQEASRLPERLGDDFVRAANIILHCEGKVVVSGIGKSGHIGKKIAATLASTGTPAFFVHPAEALHGDLGMIESRDVMLFISYSGGAKELDLIIPRLEDKSIALLAMTGKPTSPLGLAAKAVLDISVEREACPMHLAPTSSTVNTLMMGDALAMAVMQARGFNEEDFARSHPAGALGARLLNKVHHLMRRDDAIPQVALTASVMDAMLELSRTGLGLVAVCDAQQQVQGVFTDGDLRRWLVGGGALTTPVNEAMTVGGTTLQSQSRAIDAKEILMKRKITAAPVVDENGKLTGAINLQDFYQAGII ?
stdout: 9.87

stdin: Same for MSNLTYLQGYPEQLLSQVRTLINEQRLGDVLAKRYPGTHDYATDKALWQYTQDLKNQFLRNAPPINKVMYDNKIHVLKNALGLHTAVSRVQGGKLKAKVEIRVATVFRNAPEPFLRMIVVHELAHLKEKEHNKAFYQLCCHMEPQYHQLEFDTRLWLTQLSLGQNKI
stdout: 5.13

* * *

test: total protein half-life in vivo (active degradation + dilution); higher = more stable protein; settings: wild type E. coli NCM3722; growth: P-lim chemostat; doubling time 12 h
Would you mind telling me the reported total protein half-life in vivo of each entry?
Please state the number and follow it with the unit.

stdin: So what does the record say about total protein half-life in vivo for MTAPLTLLIVEDETPLAEMHAEYIRHIPGFSQILLAGNLAQARMMIERFKPGLILLDNYLPDGRGINLLHELVQAHYPGDVVFTTAASDMETVSEAVRCGVFDYLIKPIAYERLGQTLTRFRQRKHMLESIDSASQKQIDEMFNAYARGEPKDELPTGIDPLTLNAVRKLFKEPGVQHTAETVAQALTISRTTARRYLEYCASRHLIIAEIVHGKVGRPQRIYHSG [P0AEF4] ?
stdout: 7.63 h

stdin: Same for MKVKVLSLLVPALLVAGAANAAEVYNKDGNKLDLYGKVDGLHYFSDNKDVDGDQTYMRLGFKGETQVTDQLTGYGQWEYQIQGNSAENENNSWTRVAFAGLKFQDVGSFDYGRNYGVVYDVTSWTDVLPEFGGDTYGSDNFMQQRGNGFATYRNTDFFGLVDGLNFAVQYQGKNGNPSGEGFTSGVTNNGRDALRQNGDGVGGSITYDYEGFGIGGAISSSKRTDAQNTAAYIGNGDRAETYTGGLKYDANNIYLAAQYTQTYNATRVGSLGWANKAQNFEAVAQYQFDFGLRPSLAYLQSKGKNLGRGYDDEDILKYVDVGATYYFNKNMSTYVDYKINLLDDNQFTRDAGINTDNIVALGLVYQF
stdout: 13.9 h

stdin: Same for MVSRYVPDMGDLIWVDFDPTKGSEQAGHRPAVVLSPFMYNNKTGMCLCVPCTTQSKGYPFEVVLSGQERDGVALADQVKSIAWRARGATKKGTVAPEELQLIKAKINVLIG [P0AE70]
stdout: 11 h

stdin: Same for MLVWLAEHLVKYYSGFNVFSYLTFRAIVSLLTALFISLWMGPRMIAHLQKLSFGQVVRNDGPESHFSKRGTPTMGGIMILTAIVISVLLWAYPSNPYVWCVLVVLVGYGVIGFVDDYRKVVRKDTKGLIARWKYFWMSVIALGVAFALYLAGKDTPATQLVVPFFKDVMPQLGLFYILLAYFVIVGTGNAVNLTDGLDGLAIMPTVFVAGGFALVAWATGNMNFASYLHIPYLRHAGELVIVCTAIVGAGLGFLWFNTYPAQVFMGDVGSLALGGALGIIAVLLRQEFLLVIMGGVFVVETLSVILQVGSFKLRGQRIFRMAPIHHHYELKGWPEPRVIVRFWIISLMLVLIGLATLKVR [P0A6W3]
stdout: 11.1 h

stdin: Same for MRFYRPLGRISALTFDLDDTLYDNRPVILRTEREALTFVQNYHPALRSFQNEDLQRLRQAVREAEPEIYHDVTRWRFRSIEQAMLDAGLSAEEASAGAHAAMINFAKWRSRIDVPQQTHDTLKQLAKKWPLVAITNGNAQPELFGLGDYFEFVLRAGPHGRSKPFSDMYFLAAEKLNVPIGEILHVGDDLTTDVGGAIRSGMQACWIRPENGDLMQTWDSRLLPHLEISRLASLTSLI [P0ADP0]
stdout: 11.6 h

stdin: Same for MMLSKKNSETLENFSEKLEVEGRSLWQDARRRFMHNRAAVASLIVLVLIALFVILAPMLSQFAYDDTDWAMMSSAPDMESGHYFGTDSSGRDLLVRVAIGGRISLMVGVAAALVAVVVGTLYGSLSGYLGGKVDSVMMRLLEILNSFPFMFFVILLVTFFGQNILLIFVAIGMVSWLDMARIVRGQTLSLKRKEFIEAAQVGGVSTSGIVIRHIVPNVLGVVVVYASLLVPSMILFESFLSFLGLGTQEPLSSWGALLSDGANSMEVSPWLLLFPAGFLVVTLFCFNFIGDGLRDALDPKDR [P0AFH6]
stdout: 9.83 h

Value source: the supplement of paper PMC11246515
